SYSTEM_NAME: Prostaglandin E2 receptor EP4 subtype (Homo sapiens)
Sequence (P35408 whole entry): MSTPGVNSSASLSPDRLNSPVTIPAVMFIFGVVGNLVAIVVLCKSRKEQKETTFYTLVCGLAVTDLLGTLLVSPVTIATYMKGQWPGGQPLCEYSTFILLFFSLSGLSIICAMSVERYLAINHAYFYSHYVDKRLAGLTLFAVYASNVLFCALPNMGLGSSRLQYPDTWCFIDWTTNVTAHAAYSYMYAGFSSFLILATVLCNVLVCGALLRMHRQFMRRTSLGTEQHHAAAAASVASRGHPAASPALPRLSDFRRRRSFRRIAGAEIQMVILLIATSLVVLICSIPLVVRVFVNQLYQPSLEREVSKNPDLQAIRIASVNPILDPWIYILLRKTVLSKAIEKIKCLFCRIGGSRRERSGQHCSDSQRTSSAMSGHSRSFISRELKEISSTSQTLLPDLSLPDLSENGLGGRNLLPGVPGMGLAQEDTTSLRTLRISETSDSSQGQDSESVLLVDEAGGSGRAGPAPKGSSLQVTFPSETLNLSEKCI
ASSAY_EXPLANATION: Inhibition of human recombinant EP4 receptor expressed in 293EBNA cells
ATTRIBUTE_MEASURED: pIC50
Quick note: pIC50 means taking -log10 of the concentration in moles per liter.

## Task Reported pIC50, compound `CC(=O)Nc1cccc(-c2ccc(Cc3ocnc3C(=O)N[C@@H](Cc3ccccc3)C(=O)O)cc2)c1` : ____
## Result 4.62

* * *

Listing of entries alongside the reported IC50.
SYSTEM_NAME: Prostacyclin receptor (Homo sapiens, UniProt P43119)
Sequence (P43119 whole entry): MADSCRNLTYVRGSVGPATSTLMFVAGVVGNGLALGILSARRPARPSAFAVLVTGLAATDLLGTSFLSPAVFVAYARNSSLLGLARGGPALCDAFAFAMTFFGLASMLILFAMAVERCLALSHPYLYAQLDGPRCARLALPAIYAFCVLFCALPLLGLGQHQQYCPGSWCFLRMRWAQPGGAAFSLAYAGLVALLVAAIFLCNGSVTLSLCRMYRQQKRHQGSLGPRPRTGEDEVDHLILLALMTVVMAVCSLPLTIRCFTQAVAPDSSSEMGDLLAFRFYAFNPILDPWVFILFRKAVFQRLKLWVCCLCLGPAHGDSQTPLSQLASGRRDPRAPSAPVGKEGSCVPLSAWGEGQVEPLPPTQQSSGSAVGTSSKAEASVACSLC
ASSAY_EXPLANATION: Displacement of [3H]iloprost from IP receptor in human platelet membrane
Type: cell membranes
Your answer should be a plain number; it is taken to be in nM.

Guide cases for IC50, answers given:
COMPOUND | REPORTED_RESULT
CC(=O)Nc1cccc(-c2ccc(Cc3ocnc3C(=O)NC[C@@H](C)c3ccccc3)cc2)c1 | 916
CC(=O)Nc1cccc(-c2ccc(Cc3ocnc3C(=O)N[C@H](Cc3ccccc3)C(=O)O)cc2)c1 | 4200

## Task Param readout= IC50; system= Prostacyclin receptor (Homo sapiens, UniProt P43119); entry= `CC(=O)Nc1cccc(-c2ccc(Cc3ocnc3C(=O)NCCc3ccncc3)cc2)c1` ; returns value.
## Result 4710

* * *

Listing of entries alongside the reported IC50.
SYSTEM_NAME: Prostacyclin receptor (Homo sapiens, UniProt P43119)
ASSAY_EXPLANATION: Antagonist activity at human IP receptor in HEL 92.1.7 cells assessed as inhibition of iloprost-induced cAMP production
Type: functional, cell-based
Your answer should be a plain number; it is taken to be in nM.

Guide cases for IC50, answers given:
SMILES_TEXT | SYSTEM_NAME | U | IC50
CC(=O)Nc1cccc(-c2ccc(Cc3ocnc3C(=O)NC[C@H](C)c3ccccc3)cc2)c1 | Prostacyclin receptor (Homo sapiens, UniProt P43119) | nM | 51
CC(=O)Nc1cccc(-c2ccc(Cc3ocnc3C(=O)N(C)CCc3ccccc3)cc2)c1 | Prostacyclin receptor (Homo sapiens, UniProt P43119) | nM | 2130
CC(=O)Nc1cccc(-c2ccc(Cc3ocnc3C(=O)NC[C@@H](C)c3ccccc3)cc2)c1 | Prostacyclin receptor (Homo sapiens, UniProt P43119) | nM | 296

Now for a further compound.
## Task Reported IC50, compound `CC(=O)Nc1cccc(-c2ccc(Cc3ocnc3C(=O)NCCc3ccccn3)cc2)c1` : ____
## Result 1010

* * *

SYSTEM_NAME: Prostacyclin receptor (Homo sapiens, UniProt P43119)
ASSAY_EXPLANATION: Displacement of [3H]iloprost from IP receptor in human platelet membrane
Format: cell membranes
Listing of entries alongside the reported IC50.

COMPOUND | SYSTEM_NAME | IC50
CC(=O)Nc1cccc(-c2ccc(Cc3ocnc3C(=O)NCC(C)c3ccccc3)cc2)c1 (racemic) | Prostacyclin receptor (Homo sapiens, UniProt P43119) | 0.077 µM

## Task Reported IC50, compound `CC(=O)Nc1cccc(-c2ccc(Cc3ocnc3C(=O)N[C@H]3C[C@@H]3c3ccccc3)cc2)c1` : ____
## Result 0.331 µM

## Task Reported IC50, compound `CC(=O)Nc1cccc(-c2ccc(Cc3ocnc3C(=O)NCCN(C)C)cc2)c1` : ____
## Result 34.1 µM

## Task Reported IC50, compound `CC(=O)Nc1cccc(-c2ccc(Cc3ocnc3C(=O)NCCc3ccccn3)cc2)c1` : ____
## Result 7.6 µM

## Task Reported IC50, compound `CC(=O)Nc1cccc(-c2ccc(Cc3ocnc3C(=O)N[C@@H](Cc3ccccc3)C(=O)O)cc2)c1` : ____
## Result 0.476 µM
